Each entry below carries its reported NanoBRET pIC50 LIMK1.
target: LIMK1 (NanoLuc LIMK1 kinase fusion) (Homo sapiens, UniProt P53667); construct: host or cells: HEK293; assay type: cell-based; conditions: HEK293 cells, 2 h; mean ± SEM
Sequence (P53667 whole entry, the tested form may be a part): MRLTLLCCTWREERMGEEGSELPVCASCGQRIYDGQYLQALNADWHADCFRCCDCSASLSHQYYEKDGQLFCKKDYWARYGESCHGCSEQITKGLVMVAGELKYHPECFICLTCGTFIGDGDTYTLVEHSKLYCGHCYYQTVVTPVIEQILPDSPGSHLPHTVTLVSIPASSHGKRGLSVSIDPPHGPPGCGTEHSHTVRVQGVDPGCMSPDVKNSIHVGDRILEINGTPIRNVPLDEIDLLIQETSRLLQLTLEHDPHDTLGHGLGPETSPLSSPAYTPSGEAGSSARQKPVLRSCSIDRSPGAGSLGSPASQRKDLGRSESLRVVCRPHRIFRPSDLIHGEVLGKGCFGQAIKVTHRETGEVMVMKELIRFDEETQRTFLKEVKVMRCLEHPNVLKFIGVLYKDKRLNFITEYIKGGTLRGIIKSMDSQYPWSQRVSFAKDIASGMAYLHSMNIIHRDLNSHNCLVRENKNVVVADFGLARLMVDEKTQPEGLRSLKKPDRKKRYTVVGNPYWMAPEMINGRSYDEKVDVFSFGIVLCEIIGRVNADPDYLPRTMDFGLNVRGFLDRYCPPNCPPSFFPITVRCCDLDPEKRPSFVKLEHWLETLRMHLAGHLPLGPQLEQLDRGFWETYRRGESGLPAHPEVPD
REPORTED_METRIC: NanoBRET pIC50 LIMK1

CCNC(=O)Nc1ncc(-c2cc(-c3c(C)cc(OC)cc3C)nc(-c3cnccn3)n2)s1 [Compound 3]    6.45
Cn1cc(-c2[nH]c3cc(NC(=O)[C@H](N)C4CCCCC4)cc4c3c2C=NNC4=O)cn1 [Compound 16]    6.40
O=C(Nc1ncc(-c2cc(C(F)F)nn2-c2c(Cl)cccc2Cl)s1)C1CC1 [Compound 2]    7.09
Cc1c[nH]c2ncnc(N3CCN(C(=O)Nc4cccc(OC(=O)N(C)C)c4)[C@@H](C)C3)c12 [Compound 6]    8.28

----------
target: PAK pLIMK1 (PAK-phosphorylated LIMK1) (Homo sapiens, UniProt P53667); assay: RapidFire mass spectrometry kinase assay, PAK-phosphorylated LIMK1; conditions: 5 nM LIMK1 + 0.4 nM PAK1 kinase domain; mean ± SEM
Sequence (P53667 330-637): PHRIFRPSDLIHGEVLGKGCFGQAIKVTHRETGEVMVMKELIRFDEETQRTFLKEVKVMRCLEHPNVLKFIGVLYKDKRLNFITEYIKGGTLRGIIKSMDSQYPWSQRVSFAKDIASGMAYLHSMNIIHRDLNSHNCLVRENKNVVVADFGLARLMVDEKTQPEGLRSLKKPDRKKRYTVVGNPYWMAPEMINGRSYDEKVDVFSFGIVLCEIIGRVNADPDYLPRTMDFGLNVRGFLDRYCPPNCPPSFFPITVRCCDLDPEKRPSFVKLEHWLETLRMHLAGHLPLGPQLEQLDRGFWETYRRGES
Listed next: entries and their corresponding RapidFire pIC50 PAK pLIMK1.
REPORTED_METRIC: RapidFire pIC50 PAK pLIMK1

Cc1cc(Nc2nc(N[C@@H](C)c3ccc(F)cc3)c(C#N)cc2F)n[nH]1 [Compound 12]    6.52
Cc1cc(Nc2cc(CN3CCOCC3)c3nc(C)c(Cc4ccc(Cl)cc4F)n3n2)n[nH]1 [Compound 13, gandotinib]    5.98
Cc1c[nH]c2ncnc(N3CCN(C(=O)Nc4cccc(OC(=O)N(C)C)c4)[C@@H](C)C3)c12 [Compound 6]    7.68
Cn1cc(-c2[nH]c3cc(NC(=O)[C@H](N)C4CCCCC4)cc4c3c2C=NNC4=O)cn1 [Compound 16]    6.76

----------
assay: Caco-2 permeability; assay type: in vitro ADME; settings: human, Caco-2; B – A
REPORTED_METRIC: Papp B→A (×10⁻⁶ cm/s)

CC(C)C(=O)Nc1ncc(-c2cc(C(F)F)nn2-c2c(Cl)cccc2Cl)s1    12.4

----------
molecular target: PAK pLIMK2 (PAK-phosphorylated LIMK2) (Homo sapiens, UniProt P53671); format: biochemical; conditions: 6 nM LIMK2 + 0.2 nM PAK1 kinase domain; mean ± SEM
Sequence (P53671 326-638 limits assumed): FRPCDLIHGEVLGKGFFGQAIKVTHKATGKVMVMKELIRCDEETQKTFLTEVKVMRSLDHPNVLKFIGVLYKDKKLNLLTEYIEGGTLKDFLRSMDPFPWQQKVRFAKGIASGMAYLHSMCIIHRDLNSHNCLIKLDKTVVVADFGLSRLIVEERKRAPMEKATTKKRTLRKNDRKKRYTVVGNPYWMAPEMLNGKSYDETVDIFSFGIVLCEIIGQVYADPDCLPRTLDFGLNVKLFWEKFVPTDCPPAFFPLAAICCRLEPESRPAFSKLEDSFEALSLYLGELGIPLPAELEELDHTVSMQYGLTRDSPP
REPORTED_METRIC: RapidFire pIC50 PAK pLIMK2

O=C(Nc1ncc(-c2cc(C(F)F)nn2-c2c(Cl)cccc2Cl)s1)C1CC1    6.56
Cc1cc(Nc2nc(N[C@@H](C)c3ccc(F)cc3)c(C#N)cc2F)n[nH]1    5.18
Cc1c[nH]c2ncnc(N3CCC(CN)(C(=O)Nc4cccc(OC(=O)N(C)C)c4)CC3)c12    6.51
CCNC(=O)Nc1ncc(-c2cc(-c3c(C)cc(OC)cc3C)nc(-c3cnccn3)n2)s1    6.15
Cc1cc(Nc2cc(CN3CCOCC3)c3nc(C)c(Cc4ccc(Cl)cc4F)n3n2)n[nH]1    5.22
Cn1cc(-c2[nH]c3cc(NC(=O)[C@H](N)C4CCCCC4)cc4c3c2C=NNC4=O)cn1    5.47
Cc1c[nH]c2ncnc(N3CCN(C(=O)Nc4cccc(OC(=O)N(C)C)c4)[C@@H](C)C3)c12    7.68
